# credit: ChEMBL document CHEMBL3045406

test_summary: Hydrophobicity, log K of the compound
Format: physicochemical
study_conditions: octanol/water
In this section we review reported log K values for a set of molecules.
Simply state the number, no unit and no words.

>>> value_reported("C[C@@H](NC(=O)Nc1cccc(Cl)c1)c1ccccc1")
0.47
>>> value_reported("C[C@H](NC(=O)Nc1ccccc1C(C)(C)C)c1ccccc1")
0.535
>>> value_reported("Cc1ccccc1NC(=O)N[C@@H](C)c1ccccc1")
0.337
>>> value_reported("CCOC(=O)c1ccc(NC(=O)N[C@@H](C)c2ccccc2)cc1")
0.415
>>> value_reported("COc1cccc(NC(=O)N[C@H](C)c2ccccc2)c1")
0.277

Ask | log K lookup needed for C[C@H](NC(=O)Nc1c(F)cccc1F)c1ccccc1 , thanks.
Reply | 0.238

Ask | log K lookup needed for CCCCCc1ccc(NC(=O)N[C@@H](C)c2ccccc2)cc1 , thanks.
Reply | 0.912

Ask | log K lookup needed for Cc1ccc(NC(=O)N[C@H](C)c2ccccc2)c(F)c1 , thanks.
Reply | 0.459

---

Test system: Oryza sativa
test_summary: Effect on Oryza sativa (rice) assessed as growth rate at 1 uM relative to control
Assay type: organism-based
study_conditions: in vivo
endpoint: Activity (%)
Report only the number, with the unit % understood.

>>> value_reported("COc1ccccc1NC(=O)N[C@H](C)c1ccccc1")
105
>>> value_reported("C[C@H](NC(=O)Nc1ccc(Cl)c(Cl)c1)c1ccccc1")
97

Ask | Activity lookup needed for COc1ccc(NC(=O)N[C@@H](C)c2ccccc2)cc1 , thanks.
Reply | 99

Ask | Activity lookup needed for CCOC(=O)c1ccc(NC(=O)N[C@@H](C)c2ccccc2)cc1 , thanks.
Reply | 97

---

test_summary: Hydrophobicity, log K of the compound
Type: physicochemical
study_conditions: octanol/water
Output: class label from log K. Mapping: LOW (below 0.4), MID (0.4 to below 0.6), HIGH (0.6 or more)

The examples below pair each entry with its known result.
>>> qualitative_label("C[C@H](NC(=O)Nc1cccc(I)c1)c1ccccc1")
"MID"
>>> qualitative_label("C[C@H](NC(=O)Nc1ccccc1C(F)(F)F)c1ccccc1")
"MID"
>>> qualitative_label("C[C@H](NC(=O)Nc1ccc(Cl)cc1Cl)c1ccccc1")
"HIGH"
>>> qualitative_label("CCCCc1ccc(NC(=O)N[C@@H](C)c2ccccc2)cc1")
"HIGH"

Ask | Which category does the recorded log K put Cc1ccc(NC(=O)N[C@@H](C)c2ccccc2)c(F)c1 in?
Reply | MID

Ask | Which category does the recorded log K put CC(=O)c1ccccc1NC(=O)N[C@@H](C)c1ccccc1 in?
Reply | MID

Ask | Which category does the recorded log K put Cc1cc(F)ccc1NC(=O)N[C@H](C)c1ccccc1 in?
Reply | LOW

Ask | Which category does the recorded log K put CCc1cccc(CC)c1NC(=O)N[C@H](C)c1ccccc1 in?
Reply | MID

Ask | Which category does the recorded log K put CCc1ccc(NC(=O)N[C@@H](C)c2ccccc2)cc1 in?
Reply | MID

Ask | Which category does the recorded log K put Cc1ccccc1NC(=O)N[C@H](C)c1ccccc1 in?
Reply | LOW

---

test_summary: Hydrophobicity, log K of the compound
Type: physicochemical
study_conditions: octanol/water
log K less than 0.5 is TRUE; log K greater than or equal to 0.5 is FALSE.

The examples below pair each entry with its known result.
>>> qualitative_label("Cc1cc(F)ccc1NC(=O)N[C@@H](C)c1ccccc1")
"TRUE"
>>> qualitative_label("C[C@H](NC(=O)Nc1ccccc1)c1ccccc1")
"TRUE"
>>> qualitative_label("C[C@@H](NC(=O)Nc1cc(F)ccc1F)c1ccccc1")
"TRUE"
>>> qualitative_label("COc1ccc(NC(=O)N[C@@H](C)c2ccccc2)cc1")
"TRUE"
>>> qualitative_label("C[C@H](NC(=O)Nc1cc(F)ccc1F)c1ccccc1")
"TRUE"
>>> qualitative_label("C[C@@H](NC(=O)Nc1ccccc1C(F)(F)F)c1ccccc1")
"TRUE"
>>> qualitative_label("CC(C)c1ccc(NC(=O)N[C@H](C)c2ccccc2)cc1")
"FALSE"
>>> qualitative_label("C[C@@H](NC(=O)Nc1ccc(Cl)c(Cl)c1)c1ccccc1")
"FALSE"
>>> qualitative_label("C[C@H](NC(=O)Nc1ccc(C(F)(F)F)cc1)c1ccccc1")
"FALSE"
>>> qualitative_label("C[C@@H](NC(=O)Nc1ccc(F)c(F)c1)c1ccccc1")
"TRUE"

// switching to the query molecule
Ask | Input C[C@@H](NC(=O)Nc1c(F)cccc1F)c1ccccc1 ; condition: log K strictly below 0.5. Does it hold?
Reply | TRUE

---

Test system: Oryza sativa
test_summary: Effect on Oryza sativa (rice) assessed as growth rate at 1 uM relative to control
Format: organism-based
study_conditions: in vivo
endpoint: Activity (%)
Report only the number, with the unit % understood.

Example results:
>>> value_reported("C[C@H](NC(=O)Nc1ccccc1I)c1ccccc1")
100
>>> value_reported("C[C@H](NC(=O)Nc1cc(C(C)(C)C)ccc1C(C)(C)C)c1ccccc1")
98
>>> value_reported("C[C@@H](NC(=O)Nc1c(F)cccc1F)c1ccccc1")
100

Here's the next entry for you.
Ask | Activity lookup needed for Cc1ccc(NC(=O)N[C@H](C)c2ccccc2)c(F)c1 , thanks.
Reply | 99

---

Test system: Oryza sativa
test_summary: Effect on Oryza sativa (rice) assessed as growth rate at 10 uM relative to control
Assay type: organism-based
study_conditions: in vivo
endpoint: Activity (%)
Report only the number, with the unit % understood.

Ask | Quick check: Activity on Oryza sativa, item Cc1ccc(NC(=O)N[C@@H](C)c2ccccc2)c(F)c1 ?
Reply | 100

---

System: Oryza sativa
test_summary: Effect on Oryza sativa (rice) assessed as growth rate at 10 uM relative to control
Format: organism-based
study_conditions: in vivo
endpoint: Activity

>>> value_reported("CC(=O)c1cccc(NC(=O)N[C@H](C)c2ccccc2)c1")
"73%"
>>> value_reported("C[C@@H](NC(=O)Nc1cc(C(F)(F)F)cc(C(F)(F)F)c1)c1ccccc1")
"53%"
>>> value_reported("C[C@@H](NC(=O)Nc1cc(F)cc(F)c1)c1ccccc1")
"96%"
>>> value_reported("C[C@H](NC(=O)Nc1ccc(Cl)c(Cl)c1)c1ccccc1")
"99%"

Ask | Activity lookup needed for CC(C)c1ccccc1NC(=O)N[C@@H](C)c1ccccc1 , thanks.
Reply | 93%

Ask | Activity lookup needed for COc1ccccc1NC(=O)N[C@H](C)c1ccccc1 , thanks.
Reply | 96%

---

test_summary: Hydrophobicity, log K of the compound
Type: physicochemical
study_conditions: octanol/water
endpoint: log K

Example results:
>>> value_reported("C[C@@H](NC(=O)Nc1cccc(C(F)(F)F)c1F)c1ccccc1")
0.624
>>> value_reported("C[C@@H](NC(=O)Nc1ccccc1C(C)(C)C)c1ccccc1")
0.535
>>> value_reported("CCCCc1ccc(NC(=O)N[C@H](C)c2ccccc2)cc1")
0.76
>>> value_reported("C[C@@H](NC(=O)Nc1cccc(F)c1F)c1ccccc1")
0.435
>>> value_reported("C[C@@H](NC(=O)Nc1cccc(F)c1)c1ccccc1")
0.363

Ask | log K lookup needed for C[C@@H](NC(=O)Nc1ccccc1F)c1ccccc1 , thanks.
Reply | 0.367

Ask | log K lookup needed for CC(C)c1cccc(NC(=O)N[C@H](C)c2ccccc2)c1 , thanks.
Reply | 0.58

Ask | log K lookup needed for C[C@H](NC(=O)Nc1cccc(Cl)c1)c1ccccc1 , thanks.
Reply | 0.47

Ask | log K lookup needed for C[C@@H](NC(=O)Nc1ccccc1)c1ccccc1 , thanks.
Reply | 0.28

Ask | log K lookup needed for C[C@@H](NC(=O)Nc1cc(C(C)(C)C)ccc1C(C)(C)C)c1ccccc1 , thanks.
Reply | 1.001

Ask | log K lookup needed for C[C@H](NC(=O)Nc1ccccc1Br)c1ccccc1 , thanks.
Reply | 0.504

Ask | log K lookup needed for C[C@@H](NC(=O)Nc1ccc(F)cc1)c1ccccc1 , thanks.
Reply | 0.307

---

In this section we review reported log K values for a set of compounds.
test_summary: Hydrophobicity, log K of the compound
Assay type: physicochemical
study_conditions: octanol/water

Example results:
>>> value_reported("CC(=O)c1cccc(NC(=O)N[C@H](C)c2ccccc2)c1")
0.245
>>> value_reported("C[C@H](NC(=O)Nc1cc(C(C)(C)C)ccc1C(C)(C)C)c1ccccc1")
1.001
>>> value_reported("C[C@H](NC(=O)Nc1ccc(Br)cc1)c1ccccc1")
0.488

Ask | log K lookup needed for C[C@H](NC(=O)Nc1cc(F)cc(F)c1)c1ccccc1 , thanks.
Reply | 0.452

Ask | log K lookup needed for C[C@@H](NC(=O)Nc1cccc(Br)c1)c1ccccc1 , thanks.
Reply | 0.512

Ask | log K lookup needed for CCOC(=O)c1cccc(NC(=O)N[C@H](C)c2ccccc2)c1 , thanks.
Reply | 0.419
